Ref: PubChem BioAssay (Tox21)

Study System: KiSS-1 receptor (Homo sapiens) (UniProt Q969F8)
Sequence (Q969F8 whole entry, looked up): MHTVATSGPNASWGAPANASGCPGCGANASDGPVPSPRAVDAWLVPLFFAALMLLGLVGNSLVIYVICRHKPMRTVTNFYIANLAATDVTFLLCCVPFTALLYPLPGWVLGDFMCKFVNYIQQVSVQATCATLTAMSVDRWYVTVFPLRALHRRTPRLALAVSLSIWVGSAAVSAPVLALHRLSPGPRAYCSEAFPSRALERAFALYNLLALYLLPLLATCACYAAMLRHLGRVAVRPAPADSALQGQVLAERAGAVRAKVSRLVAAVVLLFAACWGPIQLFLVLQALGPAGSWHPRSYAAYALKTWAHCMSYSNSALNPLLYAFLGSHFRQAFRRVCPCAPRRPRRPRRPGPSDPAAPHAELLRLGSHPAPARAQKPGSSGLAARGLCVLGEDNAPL
Assay Explanation: Human kisspeptin (KISS1R) small molecule agonists, calcium flux assay in KISS1R-HEK293 cells (AID 1920064); further: on the % scale 0 is the no-effect control and ±100 the full control effect
Condition Info: KISS1R-HEK293, calcium flux fluorescence, agonist; series mostly up to 76.8 µM
Active and inactive are the calls of the source. The call rests on the fitted dose curve; in most records, active means well fitted activation curve with a large enough effect in the repeat runs; inconclusive means weak or mixed curves; inactive means flat fitted curve, though single readings scatter.
Parameter: activation

[
  {
    "Compound": "Cc1ccc(S(=O)(=O)NC(=O)NC2CCCCCCC2)cc1",
    "Result": "inactive"
  },
  {
    "Compound": "C[Si](C)=O",
    "Result": "-1.56% [at 6.97 µM] (inactive)"
  },
  {
    "Compound": "CC(C)(C)NC(N)=O",
    "Result": "inactive"
  },
  {
    "Compound": "CCCC(=O)C(C)=O",
    "Result": "inactive"
  },
  {
    "Compound": "CC(C)(C)C1CCCCC1O (configuration not stated)",
    "Result": "inactive"
  },
  {
    "Compound": "O=Cc1ccc(C(=O)O)cc1",
    "Result": "inactive"
  },
  {
    "Compound": "CCCCCCCCCOCC1CO1 (configuration not stated)",
    "Result": "inactive"
  },
  {
    "Compound": "O=C(OC(=O)c1ccccc1)c1ccccc1",
    "Result": "inactive"
  },
  {
    "Compound": "CSCCC=O",
    "Result": "inactive"
  },
  {
    "Compound": "CCCCC1CCC(=O)O1 (configuration not stated)",
    "Result": "inactive"
  },
  {
    "Compound": "C1CCC2OC2C1 (configuration not stated)",
    "Result": "inactive"
  },
  {
    "Compound": "CC[C@H](C)[C@H](N)C(=O)O",
    "Result": "inactive"
  },
  {
    "Compound": "Oc1ccc(/C=C/c2cc(O)cc(O)c2)cc1",
    "Result": "inactive"
  },
  {
    "Compound": "CCn1c2ccccc2c2ccccc21",
    "Result": "inactive"
  },
  {
    "Compound": "C1COC1",
    "Result": "inactive"
  },
  {
    "Compound": "C(/C=C/C=C/Nc1ccccc1)=Nc1ccccc1",
    "Result": "inactive"
  },
  {
    "Compound": "Cc1ncsc1CCO",
    "Result": "inactive"
  },
  {
    "Compound": "C=C(CC)C(=O)c1ccc(OCC(=O)O)c(Cl)c1Cl",
    "Result": "inactive"
  },
  {
    "Compound": "CCC(C)C1CCCCC1=O (configuration not stated)",
    "Result": "inactive"
  },
  {
    "Compound": "C=C(C)[C@@H]1CCC2=CC(=O)C[C@@H](C)[C@]2(C)C1",
    "Result": "inactive"
  },
  {
    "Compound": "FC(F)(F)c1ccccc1-n1ccnc1",
    "Result": "inactive"
  },
  {
    "Compound": "C=CC(=O)OCCOC1C2CCC1C1CC=CC12 (configuration not stated)",
    "Result": "0.154% [at 15.8 µM] (inactive)"
  },
  {
    "Compound": "Nc1nnnn1-c1ccccc1",
    "Result": "inactive"
  },
  {
    "Compound": "CC(O)CCCCn1c(=O)c2c(ncn2C)n(C)c1=O (configuration not stated)",
    "Result": "inactive"
  },
  {
    "Compound": "O=c1[nH]c(=O)n([C@H]2CCCO2)cc1F",
    "Result": "inactive"
  },
  {
    "Compound": "CCOCCOCCOCC",
    "Result": "inactive"
  },
  {
    "Compound": "c1ccc(CNCc2ccccc2)cc1",
    "Result": "inactive"
  },
  {
    "Compound": "C[C@H]1C[C@@H](O)CC(C)(C)C1",
    "Result": "inactive"
  },
  {
    "Compound": "COC(=O)/C=C/c1ccccc1",
    "Result": "inactive"
  },
  {
    "Compound": "CN1CCc2cccc3c2[C@H]1Cc1ccc(O)c(O)c1-3",
    "Result": "inactive"
  },
  {
    "Compound": "CO[Si](CCCNCCC[Si](OC)(OC)OC)(OC)OC",
    "Result": "inactive"
  },
  {
    "Compound": "Cc1ccc(C)cc1",
    "Result": "inactive"
  }
]
